biological target: BSA (UniProt P02769); experiment: scFv ELISA
Sequence (P02769 25-607 limits assumed): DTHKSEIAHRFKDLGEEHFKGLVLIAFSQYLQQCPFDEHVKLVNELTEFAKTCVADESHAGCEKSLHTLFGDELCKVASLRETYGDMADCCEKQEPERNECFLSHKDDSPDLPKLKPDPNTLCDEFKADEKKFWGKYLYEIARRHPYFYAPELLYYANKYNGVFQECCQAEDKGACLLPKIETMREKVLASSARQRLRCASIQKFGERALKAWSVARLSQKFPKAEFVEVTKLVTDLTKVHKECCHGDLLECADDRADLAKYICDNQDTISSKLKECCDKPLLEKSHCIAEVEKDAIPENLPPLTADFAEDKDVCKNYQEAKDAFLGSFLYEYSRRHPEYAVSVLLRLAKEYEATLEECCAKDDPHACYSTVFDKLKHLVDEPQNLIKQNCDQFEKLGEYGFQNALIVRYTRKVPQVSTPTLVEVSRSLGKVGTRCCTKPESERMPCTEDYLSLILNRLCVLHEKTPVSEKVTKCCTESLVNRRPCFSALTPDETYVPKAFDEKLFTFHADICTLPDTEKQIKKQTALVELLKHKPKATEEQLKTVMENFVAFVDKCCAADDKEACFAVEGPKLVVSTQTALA
// values below are reported OD450
I'd appreciate it if you included the unit after the number.

INSERT INTO assay_data (binder, experimental_result) VALUES
  ('PcOxP_DB03_D10 (scFv, V domains shown, scFv in periplasmic extract) VH: EVQLLESGGGLVQPGGSLRLSCAASGFTTSDFYMEWVRQAPGKGLEWVAASRNKANGYTTEYADSVKGRFTISRDNSKNTLYLQMNSLRAEDTAVYYCARDYYGSSYWYFDVWGQGTLVTVSS VL: DIVMTQSPDSLAVSLGERATINCTASESLYSSKHKVHYLAWYQQKPGQPPKLLIYGASGRYIGVPDRFSGSGSGTDFTLTISSLQAEDVAVYYCAQFYSYPLTFGGGTKVEIK', '0.06 OD450');

Noted for PcOxP_DB02_C10 (scFv, V domains shown, scFv in periplasmic extract) VH: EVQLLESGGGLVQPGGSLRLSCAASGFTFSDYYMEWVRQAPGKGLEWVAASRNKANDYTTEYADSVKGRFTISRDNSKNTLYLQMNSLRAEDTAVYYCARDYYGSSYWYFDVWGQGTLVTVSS VL: DIVMTQSPDSLAVSLGERATINCTASESLYSSKHKVHYLAWYQQKPGQPPKLLIYGASNRYIGVPDRFSGSGSGTDFTLTISSLQAEDVAVYYCAQFYEYPLTFGGGTKVEIK : its OD450 reads 0.06 OD450
